Biological target: Glycogen phosphorylase, muscle form (Oryctolagus cuniculus, UniProt P00489)
Sequence (P00489 whole entry): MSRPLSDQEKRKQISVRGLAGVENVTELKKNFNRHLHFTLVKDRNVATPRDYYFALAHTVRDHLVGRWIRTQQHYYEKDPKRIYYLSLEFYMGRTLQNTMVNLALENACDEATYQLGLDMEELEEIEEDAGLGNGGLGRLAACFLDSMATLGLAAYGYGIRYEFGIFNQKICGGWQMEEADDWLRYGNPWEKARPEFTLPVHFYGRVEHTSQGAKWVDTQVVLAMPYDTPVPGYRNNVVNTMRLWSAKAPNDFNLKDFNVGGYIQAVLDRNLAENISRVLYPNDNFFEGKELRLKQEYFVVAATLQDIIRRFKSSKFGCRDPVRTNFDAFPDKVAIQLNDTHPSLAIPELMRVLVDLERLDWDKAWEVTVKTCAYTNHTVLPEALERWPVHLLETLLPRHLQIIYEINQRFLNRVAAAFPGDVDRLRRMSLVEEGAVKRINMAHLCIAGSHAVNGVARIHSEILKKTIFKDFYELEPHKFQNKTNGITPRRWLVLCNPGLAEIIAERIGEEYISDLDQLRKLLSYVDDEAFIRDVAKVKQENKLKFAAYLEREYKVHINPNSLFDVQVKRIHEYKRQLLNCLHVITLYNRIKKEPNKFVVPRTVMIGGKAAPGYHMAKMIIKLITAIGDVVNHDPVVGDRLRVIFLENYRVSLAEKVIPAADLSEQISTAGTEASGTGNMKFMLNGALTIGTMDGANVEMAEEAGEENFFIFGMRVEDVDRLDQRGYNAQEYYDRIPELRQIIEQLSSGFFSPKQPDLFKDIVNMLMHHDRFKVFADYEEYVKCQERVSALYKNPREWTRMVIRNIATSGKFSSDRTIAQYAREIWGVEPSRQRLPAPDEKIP
Assay Metric: IC50 (µM)

CC1(C)C2CC[C@]3(C)[C@H](CC=C4[C@@H]5C[C@@](C)(C(=O)O)CC[C@]5(C)CC[C@]43C)[C@@]2(C)CC[C@@H]1O (stereo not given in full) = 82
C[C@H]1[C@H](C)CC[C@]2(C(=O)O)CC[C@]3(C)C(=CC[C@@H]4[C@@]5(C)CC[C@H](O)C(C)(C)C5CC[C@]43C)[C@H]12 (stereo not given in full) = 9
C[C@H]1[C@H](C)CC[C@]2(C(=O)O[C@@H]3O[C@H](CO)[C@@H](O)[C@H](O)[C@H]3O)CC[C@]3(C)C(=CC[C@@H]4[C@@]5(C)CC[C@H](O)C(C)(C)C5CC[C@]43C)[C@H]12 (stereo not given in full) = 97

P. C[C@H]1[C@H](C)CC[C@]2(C(=O)O)CC[C@]3(C)C(=CC[C@@H]4[C@@]5(C)CCC(=O)C(C)(C)C5CC[C@]43C)[C@H]12 (stereo not given in full)
Q. C[C@H]1[C@H](C)CC[C@]2(C(=O)O[C@@H]3O[C@H](CO)[C@@H](O)[C@H](O)[C@H]3O)CC[C@]3(C)C(=CC[C@@H]4[C@@]5(C)C[C@@H](O)[C@H](O)C(C)(C)C5CC[C@]43C)[C@H]12 (stereo not given in full)
Request: Hi, I'm comparing P with Q and wondering which one has the bigger number for IC50. Any idea? Lab log: write the label of the selected item as the result.
Response: Q
